Reported Ratio CC50/IC50 by item:
METHOD_SUMMARY: Selectivity index, ratio of CC50 for MDCK cells to IC50 for Giardia intestinalis IMSS:0696 trophozoites
Format: functional
Give the value as a plain number.

Some entries whose results are on file:
COc1ccc(S(=O)(=O)n2cc([N+](=O)[O-])nc2C)cc1 ... 49
Cc1ccc(S(=O)(=O)n2cc([N+](=O)[O-])nc2C)cc1 ... 71

Next, consider the following compound.
Prompt line: Find the recorded Ratio CC50/IC50 belonging to "Cc1nc([N+](=O)[O-])cn1S(=O)(=O)c1ccccc1" and report it.
Response line: 106

* * *

Reported CC50 at 72 h is given for each of the following molecules.
METHOD_SUMMARY: Cytotoxicity against MDCK cells after 72 hrs by MTT assay
Format: cell-based, Canis lupus familiaris
ASSAY_CONTEXT: dog
The figure you give is taken to be in µM; do not add the unit.

Cc1nc([N+](=O)[O-])cn1CC(=O)Nc1c(Cl)cccc1Cl ... 396
Cc1nc([N+](=O)[O-])cn1CC(=O)Nc1ccccc1 ... 1140
Cc1nc([N+](=O)[O-])cn1CC(=O)NCc1ccccc1 ... 77.5

Prompt line: For "CC(=O)Nc1ccc(S(=O)(=O)n2cc([N+](=O)[O-])nc2C)cc1" , what is its reported CC50 at 72 h?
Response line: 1030

Prompt line: Consider the molecule "Cc1ccc(S(=O)(=O)n2cc([N+](=O)[O-])nc2C)cc1" and give its measured CC50 at 72 h.
Response line: 988
